Just for reference, patent US20250333541A1 is where these values come from.

- assayed system: T1, cynomolgus monkey TF-His (cynomolgus monkey, UniProt A0A2K5VX02 33-253)
- T1 construct: range 33-252; Recombinant extracellular segment expressed in HEK293-EBNA cells and purified on a nickel column; also called c.TF-His; c; TF-his; not shown: His tag from vector pTT5-His
- T1 sequence: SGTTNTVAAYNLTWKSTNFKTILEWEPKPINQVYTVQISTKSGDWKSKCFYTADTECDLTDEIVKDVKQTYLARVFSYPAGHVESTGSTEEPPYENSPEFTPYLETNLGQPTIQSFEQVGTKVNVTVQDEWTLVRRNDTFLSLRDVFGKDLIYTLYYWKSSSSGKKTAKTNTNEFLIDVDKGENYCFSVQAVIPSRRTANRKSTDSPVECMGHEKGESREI
- assay comment: ELISA, plate coated with c.TF-His
Catalogue of binders with associated EC50
Respond with the bare value in µg/mL.

Completed entries (count: 2):
binder="22F11H5-hz1 (antibody, human IgG1, kappa, V domains shown, Humanized IgG1 kappa) VH: QVQLVQSGAEVKQPGASVKVSCKASGYTFTTYWMHWVRQAPGQGLEWMGMIDPSDSYTTYAQKFQGRVTLTVDTSTSTAYMELSSLRSEDTAVYYCARGSGPGLFAYWGQGTLVTVSS VL: DIQETQSPSSLSASVGDRVTITCRASQDIRNYLNWYQQKPGKAPKLLIYHTSRLQSGVPSRFSGSGSGTDYTLTISSLQPEDFATYYCQQGNMPPYTFGQGTKVEIKR" quantity_unit=µg/mL numeric_readout=0.0114
binder="2B12B10-hz1 (antibody, human IgG1, kappa, V domains shown, Humanized IgG1 kappa) VH: EVQLVESGGGLVQPGGSLRLSCAASGFAFSDSGMHWVRQAPGKGLEWVAYISRDSNTIYYADSVKGRFTISRDNAKNSLYLQMNSLRAEDTAVYYCGRRYYGDYFDYWGQGTLVTVSS VL: DIVLTQSPATLSLSPGERATLSCRASQRVTNYLHWYQQKPGQSPRLLIKYASQSISGIPARFSGSGSGTDFTLTISSLEPEDFAVYFCQQSYNWPLTFGQGTKVEIKR" quantity_unit=µg/mL numeric_readout=0.0136

Okay, next one:
Measured EC50, 30G11B7-hz1 (antibody, human IgG1, kappa, V domains shown, Humanized IgG1 kappa) VH: EVQLVESGGGLVKPGGSLRLSCAASGFTFSDYGMFWVRQAPGKGLEWVAYISRGSTTIYYADSVKGRFTISRDNAKNSLYLQMNSLRAEDTAVYFCTRRYYGDYFDYWGQGTLVTVSS VL: EIVLTQSPDFQSVTPKEKVTITCRASQSISNYLHWYQQKPDQSPKLLIKYASQSISGVPSRFSGSGSGTDFTLTINSLEAEDAATYFCQQSYNWPLTFGQGTKVEIKR : 0.0208
